# System Under Test: HLA-A*1101 (human)
# Protocol Text: competition with 125I-labelled standard peptide for purified HLA-A*1101, gel filtration
# binding affinity ratio (IC50 of standard peptide / IC50 of test peptide) listing for each entry below
Please state the value as a number alone, without comment.

These recorded examples may help you get a feel for the data.
Binder: KLRAGQNHR (modifications not checked) [HPV18 E1 position 647 peptide …]
Value Observed: 0.0013

Binder: KSFLKGTPK (modifications not checked) [HPV18 E1 position 468 peptide …]
Value Observed: 0.0015

Binder: KLRHLNEKR (modifications not checked) [HPV18 E6 117 …]
Value Observed: 0.0005

Binder: ELRHYSDSVY (modifications not checked) [HPV18 E6 77 …]
Value Observed: 0.0002

Let's switch to this binder now.
Using the record for GDTPEWIQR (modifications not checked) [HPV18 E1 position 341 peptide …] , report its binding affinity ratio (IC50 of standard peptide / IC50 of test peptide). 0.0002
